# measured_on: HORK3 protein (human ADP receptor P2TAC) (Homo sapiens)
# measurement_notes: Forskolin-stimulated cAMP production in C6-15 cell expressing HORK3 protein (cAMP HTRF)
# Type: cell-based
# assay_context: C6-15 cells expressing HORK3; 1 μmol/L forskolin and 10 nmol/L 2MeSADP; read-out: IC50, inhibitory effect on the suppression by 2MeSADP in the amount of cAMP produced by the forskolin stimulus
pIC50: −log10 of the molar value.
quantity_kind: pIC50

compound	quantity_kind	numeric_readout
CSc1nc(N)c2ncn([C@@H]3O[C@H](COP(=O)(O)O)[C@@H](O)[C@H]3O)c2n1 [2MeSAMP, 2-methylthio-adenosine monophosphate]	pIC50	5.30

---

# measured_on: HORK3 protein (human ADP receptor P2TAC) (Homo sapiens, UniProt Q9H244)
# Sequence (Q9H244 whole entry): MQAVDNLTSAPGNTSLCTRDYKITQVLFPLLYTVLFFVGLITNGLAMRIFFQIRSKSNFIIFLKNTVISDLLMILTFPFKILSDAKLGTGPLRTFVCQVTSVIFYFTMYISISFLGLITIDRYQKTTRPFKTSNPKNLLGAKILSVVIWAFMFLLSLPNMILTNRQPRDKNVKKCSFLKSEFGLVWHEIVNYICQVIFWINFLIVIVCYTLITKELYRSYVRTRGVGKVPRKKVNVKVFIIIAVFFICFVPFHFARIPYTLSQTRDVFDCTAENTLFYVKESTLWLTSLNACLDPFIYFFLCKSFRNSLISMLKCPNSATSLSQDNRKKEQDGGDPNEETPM
# measurement_notes: [3H]-2MeSADP binding assay on membrane fraction of C6-15 cell expressing HORK3 protein
# assay_context: Scatchard analysis; 0.25 to 50 nmol/L; room temperature 1 hour; read-out: dissociation constant Kd of binding to the membrane fraction
quantity_kind: Kd (nM)

compound	numeric_readout
CSc1nc(N)c2ncn([C@@H]3O[C@H](COP(=O)(O)OP(=O)(O)O)[C@@H](O)[C@H]3O)c2n1 [[^3H]-2MeSADP, [^3H] 2-methylthio-ADP]	0.27

---

# measured_on: HORK3 protein (human ADP receptor P2TAC) (Homo sapiens)
# measurement_notes: [3H]-2MeSADP binding assay on membrane fraction of C6-15 cell expressing HORK3 protein
# assay_context: 1 nmol/L [3H]-2MeSADP; 20 μg membrane fraction; room temperature 2 hours
pIC50: −log10 of the molar value.

compound	pIC50
CSc1nc(N)c2ncn([C@@H]3O[C@H](COP(=O)(O)O)[C@@H](O)[C@H]3O)c2n1 [2MeSAMP, 2-methylthio-adenosine monophosphate]	5.31

---

# measured_on: UniProt Q9H244
# measurement_notes: Forskolin-stimulated cAMP production in C6-15 cell expressing HORK3 protein (cAMP HTRF)
# Type: cell-based
# assay_context: C6-15 cells expressing HORK3; 1 μmol/L forskolin; 37° C. 30 minutes; read-out: EC50, responsiveness against the HORK3 protein (decrease of cAMP produced by forskolin)

compound	EC50
Nc1ncnc2c1ncn2[C@@H]1O[C@H](COP(=O)(O)OP(=O)(O)O)[C@@H](O)[C@H]1O [ADP, adenosine 5′-diphosphate]	42 nM
CSc1nc(N)c2ncn([C@@H]3O[C@H](COP(=O)(O)OP(=O)(O)O)[C@@H](O)[C@H]3O)c2n1 [2MeSADP, 2-methylthio-ADP]	0.08 nM

---

# measured_on: HORK3 protein (human ADP receptor P2TAC) (Homo sapiens)
# measurement_notes: Inhibition of forskolin-stimulated cAMP production in CHO cell expressing HORK3 protein
# Assay type: cell-based
# assay_context: CHO-dhfr(-) cells expressing HORK3; 3 μmol/L forskolin; 37° C. 30 minutes; read-out: EC50, responsiveness against the HORK3 protein (decrease of cAMP produced by forskolin)
pEC50: −log10 of the molar value.
Reported pEC50 values for a set of compounds
quantity_kind: pEC50

compound	measured_on	numeric_readout
Nc1ncnc2c1ncn2[C@@H]1O[C@H](COP(=O)(O)OP(=O)(O)O)[C@@H](O)[C@H]1O [ADP, adenosine 5′-diphosphate]	HORK3 protein (human ADP receptor P2TAC) (Homo sapiens)	7.46
CSc1nc(N)c2ncn([C@@H]3O[C@H](COP(=O)(O)OP(=O)(O)O)[C@@H](O)[C@H]3O)c2n1	HORK3 protein (human ADP receptor P2TAC) (Homo sapiens)	10.15
